Entries and their measured CC50 at 4 day follow.
Assay: Compound cytotoxicity, XTT-based colorimetric assay
Type: cell-based
Settings: human; uninfected MT2 cells, day 4, XTT assay

// known answers, use as guide
compound	CC50 at 4 day
Cn1nc(NS(C)(=O)=O)c2c(Cl)ccc(-n3c([C@H](Cc4cc(F)cc(F)c4)NC(=O)Cn4nc(C(F)F)c5c4C(F)(F)[C@@H]4C[C@H]54)nc4nc(OCC5CC5(F)F)ccc4c3=O)c21 (stereo partly shown)	> 100 nM
Cn1nc(NS(C)(=O)=O)c2c(Cl)ccc(-n3c([C@H](Cc4cc(F)cc(F)c4)NC(=O)Cn4nc(C(F)F)c5c4C(F)(F)[C@@H]4C[C@H]54)nc4nc(OC5CCC(F)(F)CC5)ccc4c3=O)c21 (atropisomer, axis not shown; (P))	> 100 nM
Cn1nc(NS(C)(=O)=O)c2c(Cl)ccc(-n3c([C@H](Cc4cc(F)cc(F)c4)NC(=O)Cn4nc(C(F)F)c5c4C(F)(F)[C@@H]4C[C@H]54)nc4nc(OCc5ccncc5)ccc4c3=O)c21 (atropisomer, axis not shown; (P))	> 100 nM
Cc1cc(C)nc(COc2ccc3c(=O)n(-c4ccc(Cl)c5c(NS(C)(=O)=O)nn(C)c45)c([C@H](Cc4cc(F)cc(F)c4)NC(=O)Cn4nc(C(F)F)c5c4C(F)(F)[C@@H]4C[C@H]54)nc3n2)n1 (atropisomer, axis not shown; (P))	> 500 nM
Cn1nc(NS(C)(=O)=O)c2c(Cl)ccc(-n3c([C@H](Cc4cc(F)cc(F)c4)NC(=O)Cn4nc(C(F)F)c5c4C(F)(F)[C@@H]4C[C@H]54)nc4nc(Oc5ccccc5F)ccc4c3=O)c21 (atropisomer, axis not shown; (P))	> 100 nM

For reference, reported CC50 at 4 day for Cn1nc(NS(C)(=O)=O)c2c(Cl)ccc(-n3c([C@H](Cc4cc(F)cc(F)c4)NC(=O)Cn4nc(C(F)F)c5c4C(F)(F)[C@@H]4C[C@H]54)nc4nc(OCCC(C)(C)c5ccccc5)ccc4c3=O)c21 (atropisomer, axis not shown; (P)) stands at > 100 nM

So for Cn1nc(NS(C)(=O)=O)c2c(Cl)ccc(-n3c([C@H](Cc4cc(F)cc(F)c4)NC(=O)Cn4nc(C(F)F)c5c4C(F)(F)[C@@H]4C[C@H]54)nc4nc(OCc5cccc(C(F)(F)F)n5)ccc4c3=O)c21 (atropisomer, axis not shown; (P)) , the logged CC50 at 4 day turned out to be > 100 nM

CN(CCOc1ccc2c(=O)n(-c3ccc(Cl)c4c(NS(C)(=O)=O)nn(C)c34)c([C@H](Cc3cc(F)cc(F)c3)NC(=O)Cn3nc(C(F)F)c4c3C(F)(F)[C@@H]3C[C@H]43)nc2n1)S(C)(=O)=O (atropisomer, axis not shown; (P)) yielded CC50 at 4 day of > 500 nM

Reported CC50 at 4 day of Cn1nc(NS(C)(=O)=O)c2c(Cl)ccc(-n3c([C@H](Cc4cc(F)cc(F)c4)NC(=O)Cn4nc(C(F)F)c5c4C(F)(F)[C@@H]4C[C@H]54)nc4nc(OCCOCC(F)(F)C(F)(F)F)ccc4c3=O)c21 (atropisomer, axis not shown; (P)) : > 100 nM

Kindly note the recorded CC50 at 4 day for Cn1nc(NS(C)(=O)=O)c2c(Cl)ccc(-n3c([C@H](Cc4cc(F)cc(F)c4)NC(=O)Cn4nc(C(F)F)c5c4C(F)(F)[C@@H]4C[C@H]54)nc4nc(OCc5ccn(CC(F)(F)F)n5)ccc4c3=O)c21 (atropisomer, axis not shown; (P)) , which is > 100 nM

// recorded CC50 at 4 day for Cn1nc(NS(C)(=O)=O)c2c(Cl)ccc(-n3c([C@H](Cc4cc(F)cc(F)c4)NC(=O)Cn4nc(C(F)F)c5c4C(F)(F)[C@@H]4C[C@H]54)nc4nc(OCCC(F)(F)C(F)(F)F)ccc4c3=O)c21 (atropisomer, axis not shown; (P)) : > 100 nM

Consider Cn1nc(NS(C)(=O)=O)c2c(Cl)ccc(-n3c([C@H](Cc4cc(F)cc(F)c4)NC(=O)Cn4nc(C(F)F)c5c4C(F)(F)[C@@H]4C[C@H]54)nc4nc(OCCOC(F)F)ccc4c3=O)c21 (atropisomer, axis not shown; (P)) . Its measured CC50 at 4 day is > 100 nM

The compound identified as COC(C)(C)CCOc1ccc2c(=O)n(-c3ccc(Cl)c4c(NS(C)(=O)=O)nn(C)c34)c([C@H](Cc3cc(F)cc(F)c3)NC(=O)Cn3nc(C(F)F)c4c3C(F)(F)[C@@H]3C[C@H]43)nc2n1 (atropisomer, axis not shown; (P)) registered its CC50 at 4 day at > 500 nM

Per the record, Cn1nc(NS(C)(=O)=O)c2c(Cl)ccc(-n3c([C@H](Cc4cc(F)cc(F)c4)NC(=O)Cn4nc(C5CC5)c5c4C(F)(F)[C@@H]4C[C@H]54)nc4nc(OCC(F)(F)C(F)(F)F)ccc4c3=O)c21 (atropisomer, axis not shown; (P)) has CC50 at 4 day of > 100 nM

Value of measured CC50 at 4 day for the entry Cn1nc(NS(C)(=O)=O)c2c(Cl)ccc(-n3c([C@H](Cc4cc(F)cc(F)c4)NC(=O)Cn4nc(C(F)F)c5c4C(F)(F)[C@@H]4C[C@H]54)nc4nc(OCCC5CC(F)(F)C5)ccc4c3=O)c21 (atropisomer, axis not shown; (P)) : > 100 nM

// CC50 at 4 day value for Cn1nccc1CCOc1ccc2c(=O)n(-c3ccc(Cl)c4c(NS(C)(=O)=O)nn(C)c34)c([C@H](Cc3cc(F)cc(F)c3)NC(=O)Cn3nc(C(F)F)c4c3C(F)(F)[C@@H]3C[C@H]43)nc2n1 (atropisomer, axis not shown; (P)) : > 500 nM

Taken from patent US20230355626A1.
